- target.of.assay: p300 HAT domain (residues 1287-1666) (Homo sapiens (Human))
- Sequence (Q09472 1287-1666): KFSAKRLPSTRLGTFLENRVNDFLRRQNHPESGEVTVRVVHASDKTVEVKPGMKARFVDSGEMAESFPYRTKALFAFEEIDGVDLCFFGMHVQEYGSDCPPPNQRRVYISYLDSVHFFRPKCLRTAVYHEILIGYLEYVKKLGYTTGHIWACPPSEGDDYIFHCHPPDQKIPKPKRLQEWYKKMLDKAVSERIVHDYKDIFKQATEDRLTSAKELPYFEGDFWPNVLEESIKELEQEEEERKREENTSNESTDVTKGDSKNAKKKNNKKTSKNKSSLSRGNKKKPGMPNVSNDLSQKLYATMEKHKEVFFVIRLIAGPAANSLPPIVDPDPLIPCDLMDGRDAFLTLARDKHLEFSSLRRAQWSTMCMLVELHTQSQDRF
- protocol: p300 HAT SPA assay (scintillation proximity assay, acetylation of biotinylated H3(1-21) peptide)
- Type: biochemical
- recorded.conditions: p300 HAT domain; average of at least 2 replicate titrations; read-out: P300 HAT SPA IC50
pIC50: −log10 of the molar value.
Some compounds, each annotated with its measured pIC50.

Reference set (2 entries):
compound	pIC50
O=C(c1c[nH]c2ccccc12)C(NCCc1ccc(Cl)cc1)C1CC1 (single isomer, unassigned) [24 Isomer 2]	< 4.22
CCNC(=O)c1ccc2c(C(=O)C(NCCc3ccc(C#N)cc3Cl)c3ccccc3)c[nH]c2c1 (single isomer, unassigned) [71 Isomer 1]	< 5.70

Please list pIC50 recorded for the compound O=C(c1c[nH]c2cc(OCc3ccccc3)ccc12)C(NCCc1ccc(F)cc1)c1ccccc1 (single isomer, unassigned) [61 Isomer 1] < 4.52
